The measurements presented in this section are drawn from paper PMC5540273.

System: WNK4
particulars: concentration: 1 μM, replicates: in singlicate; n = 1;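 also: KINOMEscan kinase panel screen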
Below, each entry is listed with its recorded %Inh.
assay.endpoint: %Inh (%)

1. Nc1ncnc2c1ncn2-c1cccc(F)c1 [SKF-97560] | 54
2. O=C(Nc1n[nH]c2nc(-c3ccccc3)c(Br)cc12)C1CC1 [SB-708998] | 0
3. COC(=O)c1c(-c2ccccc2)c2cc(Br)ccc2c(=O)n1Cc1ccc(S(C)(=O)=O)cc1 | 0
4. COc1ccc(-c2coc3ccc(-c4nnc(SCc5cccc(C#N)c5)o4)cc23)cc1 | 3
5. Nc1ncnc2c1ncn2-c1ccc(Cl)cc1 [AH2635] | 32
6. CCC(=O)c1c(-c2ccccc2)c2cc(Cl)ccc2c(=O)n1Cc1cc(S(C)(=O)=O)n(CC(F)F)n1 | 0
7. FC(F)(F)c1ccc(-c2ncn(CCCN3CCOCC3)c2-c2ccncc2)cc1 [SB-217780] | 0
8. Cc1nnc(-c2ccc3ncn(-c4ccc(S(C)=O)cc4)c3c2)o1 (stereo not shown) | 0
9. CCC(=O)c1c(-c2ccccc2)c2cc(Cl)ccc2c(=O)n1Cc1cc(S(C)(=O)=O)n(CCC(C)(C)O)n1 | 25
10. C[C@@H]1CC[C@H](C(=O)NC2CCCCC2)CN1c1cc(-c2ccc3c(N)n[nH]c3c2)nc(N)n1 [GSK2291363] | 0
11. O=C(NCCNc1ccnc(Nc2ccc(F)cc2)n1)Nc1ccc2c(c1)OCO2 [GSK1379882] | 12
12. O=C(Nc1n[nH]c2nc(-c3ccccc3)c(Cl)cc12)C1CC1 [SB-734909] | 0
13. COc1cc(Nc2nccc(N3CCC(NC(=O)C4COc5ccccc5O4)C3)n2)cc(OC)c1OC (stereo not shown) [GSK1379761] | 50
14. OCCCNc1nccc(-c2c(-c3cccc(C(F)(F)F)c3)nn3cc(C(F)(F)F)ccc23)n1 [GW630813] | 85
15. CCS(=O)c1ccc(-c2coc3ccc(-c4nnc(C)o4)cc23)cc1 (stereo not shown) | 11
16. Cc1ccccc1COc1cc(-n2cnc3cc(Cl)ccc32)sc1C(N)=O [GW813349] | 0
17. Cc1ccc(Oc2ccc(Nc3ncnc4cc[nH]c34)cc2C)cn1 | 0
18. CN1C(=O)C(Nc2ccccc2)=C(c2ccccc2)C1=O [SB-300079] | 26
19. Cc1cccc(-c2cc(-c3c[nH]nc3-c3ccccn3)ccn2)c1 [GW679395] | 38

====

Tested on: PRKD2
particulars: concentration: 1 μM, replicates: in singlicate; n = 1
assay.endpoint: %Inh

1. CCC(=O)c1c(-c2ccccc2)c2cc(Cl)ccc2c(=O)n1Cc1cc(S(C)(=O)=O)n(CC(F)F)n1 | 0%
2. Cc1ccc(Oc2ccc(Nc3ncnc4cc[nH]c34)cc2C)cn1 | 2%
3. O=C(NCc1cccs1)c1cc(C(=O)c2c(Cl)cccc2Cl)c[nH]1 [GW823670] | 3%
4. Cl.c1ccc(Cn2cnc3cc(Nc4ncnc5ccccc45)ccc32)cc1 [GW272142] | 1%
5. COc1cc2ncn(-c3cc(OCc4ccncc4Br)c(C(N)=O)s3)c2cc1OC [GW854278] | 11%
6. COC(=O)c1c(-c2ccccc2)c2cc(C)ccc2c(=O)n1Cc1ccccc1 | 8%
7. CCCNC(=O)Nc1ccc(Oc2ncnc3ccn(C)c23)cc1 | 0%
8. FC(F)(F)c1ccc(-c2ncn(CCCN3CCOCC3)c2-c2ccncc2)cc1 [SB-217780] | 0%
